Test: soluble fraction after stress (log2 fold change); higher = more stays soluble; pooled small domains, quantitative proteomics;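 note: 20 min heating vs room temperature control held 20 min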
Conditions: stress: 75 degC
reportedEndpoint: soluble fraction (log2)

residueCodes: HMDISAFDTEFIISKFGGIRPMAQKLGVPVSTVQGWKQRQTIPQNRMGDILEAAKNYNLELTP
reportedEndpoint: soluble fraction (log2)
observed: -0.112
//
residueCodes: HMDSQSVFADLVKSLSQKIASIPVWFEYTKNEQYDLISSYVSAKLKDLGVEFSQEEKEKFITMFMNS
reportedEndpoint: soluble fraction (log2)
observed: -0.609
//
residueCodes: HMFFDSDTDIQNALNAENSIKKYQLFRTQTLYNSAQSDIDFVNQPEVKAKLFDALENLKNKLGFLAEPT
reportedEndpoint: soluble fraction (log2)
observed: -0.0329
//
residueCodes: HMSQAVTMLKAGRLLANSKGTGAAVRDLEPGMLLYPTGQKDGTMWEVEDEMGNKGWVNSTSMQLA
reportedEndpoint: soluble fraction (log2)
observed: 0.271

---

Assay: soluble fraction after stress (log2 fold change); higher = more stays soluble; pooled small domains, quantitative proteomics
Settings: stress: 75 degC
reportedEndpoint: soluble fraction (log2)

residueCodes: HMLPGLGPIERAQFMLQAIPGISPTRSAALIDKFGSIAGIAQASIKDIQTIEGIGKKTATTLYEVLNAG
reportedEndpoint: soluble fraction (log2)
observed: -0.39
--
residueCodes: HMPPRFVPATGADLRRWLDVSGLTAEAAGDLLGVSGARFRQWLSRYRSAPLPDPVRALLVALLRP
reportedEndpoint: soluble fraction (log2)
observed: -0.00746
--
residueCodes: HMDQDIILHKVQPGDTLSKILLHYHSHQDRNKLQGLIAESMTANPFIKNPDLIYPGQLIQVPVPA
reportedEndpoint: soluble fraction (log2)
observed: 0.0879
--
residueCodes: HMGDTHKVPGVKGVNVEQAMDMLSRLDLKAVVIDSVYVKDKKLGTVIEQNPVEGSVVKPGRPIYLVVNSRS
reportedEndpoint: soluble fraction (log2)
observed: 0.352
--
residueCodes: HMDVSEITTIKWIIKETKLGINEKILIYVNSKNFTVETLMEGFEIMSKYLVENVSSDKIVYIKN
reportedEndpoint: soluble fraction (log2)
observed: 0.0119

---

Each entry below carries its recorded soluble fraction (log2).
Assay: soluble fraction after stress (log2 fold change); higher = more stays soluble; pooled small domains, quantitative proteomics
Conditions: stress: 75 degC
reportedEndpoint: soluble fraction (log2)

residueCodes: HMTEEVIIQNYIGKNFNDVRDELEAKGITVDEPNMKYSDEFKENTIMAQSIKPGQPLKPGGFNSIKFDVS
reportedEndpoint: soluble fraction (log2)
observed: -0.0167

residueCodes: HMEAMITEVKRINYGLISDISKSLDPFKSEGGHIIVDKRTNTFILTDLRANIEKMLWSIEIMD
reportedEndpoint: soluble fraction (log2)
observed: -0.196

residueCodes: HMLPLPRFASLDSSEANLRAGPGKDYPILWVYQRKGLPVEIIQEFDTWRRIRDRDGTVGWVQQNLL
reportedEndpoint: soluble fraction (log2)
observed: -0.351

residueCodes: HMSSSKVAISQFEELVDQGQVREVVIEGSTATGTTAAGRRFAAEIPPGGMELFLSKLDDAGTTYEYSPP
reportedEndpoint: soluble fraction (log2)
observed: 0.822

residueCodes: HMQISNEEELEKIIENVIESNPEKVKAYQSGKSGLIGFFMGQVMKESGGQANPNLVNQILKGKL
reportedEndpoint: soluble fraction (log2)
observed: 0.109

residueCodes: HMIGRIKGQLIEKKSDSVVIDVHGIGYVVYVTEKTARSLTLGDQSRDISLYSELLVKEDLLQLVGFI
reportedEndpoint: soluble fraction (log2)
observed: -0.075

residueCodes: HMVGADTISDLISQRGRMIGDKPITNAVIKSGSEFSTINALSKAIASGDARTNDVEGMKPVFR
reportedEndpoint: soluble fraction (log2)
observed: -0.126

residueCodes: HMKITIDSVERDETFRLIWGTGWKPKNKIQELAAIQAKKNGLGRMNEVAGLAAWRGIWQQVAEQVAQEVL
reportedEndpoint: soluble fraction (log2)
observed: -2.03

residueCodes: HMVVPRSFKYEVLAHGGWAGNAQRYQTKEEALHAGLALSRRWTAVEDYRAVPSDDLPNQPAL
reportedEndpoint: soluble fraction (log2)
observed: -0.231

residueCodes: HMNVYAGTMINVVGLQVEDAASRLRGLFYSVKIVEEESQEPDGKVLRQNIAEGTKDLEAWTLVELTVSKYV
reportedEndpoint: soluble fraction (log2)
observed: -2.73

residueCodes: HMGKTRSTDRTRRAILDAASDLMGKHGTSVSLARIAEAAGMSKGGLLHHFPSRNDLIRALGED
reportedEndpoint: soluble fraction (log2)
observed: 0.011

residueCodes: HMNLKDINLNVRHYKIIDFVREHGYASIETLTRQFGVSAQTVRRDIIYLDNQAVLKRHHGGVGTLPG
reportedEndpoint: soluble fraction (log2)
observed: -1.97

residueCodes: HMALWFDEWKKYQDTIASADLLPDKAERDALIAQAEDRFNYWMDIYPRSASLNHSFDDLYEEHRRKIE
reportedEndpoint: soluble fraction (log2)
observed: -1.01

residueCodes: HMDIGKNIQTIRYANKLTQDQVIAKLNLMGISMSKSTYAKLETNRMNIKVSELVALAKIFHTDINAF
reportedEndpoint: soluble fraction (log2)
observed: -2.62

residueCodes: HMYLQKGISNGKVYLSIVHGYRDPVTKKVRRKTIRSLGYLEDLEKQYADPIKHFEAVVAKMNEEEALE
reportedEndpoint: soluble fraction (log2)
observed: -1.88
